Origin of the recorded values: the NIST ThermoML archive (doi:10.1021/acs.jced.5b00820)

testSettings: 318.15 K; 102.2 kPa; Liquid; Vibrating tube method
Numbers after ± are expanded uncertainties.
testReadout: mass density

Specify measured mass density for C=C[Si](C)(C)O[Si](C)(C)C=C .
788.05 ± 0.24 kg/m3

Specify measured mass density for C[Si]1(C)O[Si](C)(C)O[Si](C)(C)O[Si](C)(C)O1 .
927.34 ± 0.22 kg/m3

Specify measured mass density for C=C[Si]1(C)O[Si](C)(C=C)O[Si](C)(C=C)O[Si](C)(C=C)O1 (stereo not given) .
962.36 ± 0.21 kg/m3

Specify measured mass density for C[Si]1(CCC(F)(F)F)O[Si](C)(CCC(F)(F)F)O[Si](C)(CCC(F)(F)F)O1 (stereo not given) .
1223.61 ± 0.23 kg/m3

Specify measured mass density for C[Si](C)(O[Si](C)(C)c1ccccc1)c1ccccc1 .
959.8 ± 0.21 kg/m3 [middle of 4 runs]

* * *

testName: refractive index (Na D-line) (dimensionless)
testSettings: 308.15 K; 102.2 kPa; Liquid; Standard Abbe refractometry
Hi there, I'd appreciate the recorded refractive index for every entry that follows.
# output: bare number, no unit

Specify measured refractive index for C[Si]1(C)O[Si](C)(C)O[Si](C)(C)O[Si](C)(C)O1 .
1.38924

Specify measured refractive index for C=C[Si](C)(C)O[Si](C)(C)C=C .
1.40445

Specify measured refractive index for C[Si]1(CCC(F)(F)F)O[Si](C)(CCC(F)(F)F)O[Si](C)(CCC(F)(F)F)O1 (stereo not given) .
1.36015

Specify measured refractive index for C=C[Si]1(C)O[Si](C)(C=C)O[Si](C)(C=C)O[Si](C)(C=C)O1 (stereo not given) .
1.42751

* * *

testName: refractive index (Na D-line) (dimensionless)
testSettings: 313.15 K; 102.2 kPa; Liquid; Standard Abbe refractometry
testReadout: refractive index
# output: bare number, no unit

Specify measured refractive index for C[Si]1(C)O[Si](C)(C)O[Si](C)(C)O[Si](C)(C)O1 .
1.38671

Specify measured refractive index for C[Si]1(CCC(F)(F)F)O[Si](C)(CCC(F)(F)F)O[Si](C)(CCC(F)(F)F)O1 (stereo not given) .
1.35814

Specify measured refractive index for C=C[Si](C)(C)O[Si](C)(C)C=C .
1.40178

Specify measured refractive index for C=C[Si]1(C)O[Si](C)(C=C)O[Si](C)(C=C)O[Si](C)(C=C)O1 (stereo not given) .
1.42514

* * *

testSettings: 323.15 K; 102.2 kPa; Liquid; Vibrating tube method
Hi there, I'd appreciate the recorded mass density for every entry that follows.
Could you give me the number in kg/m3? Just the number is fine.

Specify measured mass density for C=C[Si]1(C)O[Si](C)(C=C)O[Si](C)(C=C)O[Si](C)(C=C)O1 (stereo not given) [2,4,6,8-tetramethyl-2,4,6,8-tetravinylcycloterasiloxane] .
957.2

Specify measured mass density for C=C[Si](C)(C)O[Si](C)(C)C=C [1,3-diethenyl-1,1,3,3-tetramethyldisiloxane] .
783.06

Specify measured mass density for C[Si]1(C)O[Si](C)(C)O[Si](C)(C)O[Si](C)(C)O1 [octamethylcyclotetrasiloxane] .
921.59

Specify measured mass density for C[Si]1(CCC(F)(F)F)O[Si](C)(CCC(F)(F)F)O[Si](C)(CCC(F)(F)F)O1 (stereo not given) .
1217.06

* * *

testSettings: 308.15 K; 102.2 kPa; Liquid; Vibrating tube method
testReadout: mass density (kg/m3)
Could you give me the number in kg/m3? Just the number is fine.

Specify measured mass density for C[Si]1(CCC(F)(F)F)O[Si](C)(CCC(F)(F)F)O[Si](C)(CCC(F)(F)F)O1 (centres undefined) .
1236.82

Specify measured mass density for C=C[Si](C)(C)O[Si](C)(C)C=C [1,3-diethenyl-1,1,3,3-tetramethyldisiloxane] .
797.99

Specify measured mass density for C[Si]1(C)O[Si](C)(C)O[Si](C)(C)O[Si](C)(C)O1 [octamethylcyclotetrasiloxane] .
938.88

Specify measured mass density for C=C[Si]1(C)O[Si](C)(C=C)O[Si](C)(C=C)O[Si](C)(C=C)O1 (centres undefined) [2,4,6,8-tetramethyl-2,4,6,8-tetravinylcycloterasiloxane] .
972.64

* * *

testName: refractive index (Na D-line) (dimensionless)
testSettings: 318.15 K; 102.2 kPa; Liquid; Standard Abbe refractometry
Hi there, I'd appreciate the recorded refractive index for every entry that follows.
# output: bare number, no unit

Specify measured refractive index for C[Si]1(C)O[Si](C)(C)O[Si](C)(C)O[Si](C)(C)O1 .
1.38419

Specify measured refractive index for C=C[Si](C)(C)O[Si](C)(C)C=C .
1.39912

Specify measured refractive index for C=C[Si]1(C)O[Si](C)(C=C)O[Si](C)(C=C)O[Si](C)(C=C)O1 (stereo not given) .
1.42275

Specify measured refractive index for C[Si]1(CCC(F)(F)F)O[Si](C)(CCC(F)(F)F)O[Si](C)(CCC(F)(F)F)O1 (stereo not given) .
1.35614

* * *

Hi there, I'd appreciate the recorded mass density for every entry that follows.
testSettings: 313.15 K; 102.2 kPa; Liquid; Vibrating tube method
Could you give me the number in kg/m3? Just the number is fine.

Specify measured mass density for C=C[Si]1(C)O[Si](C)(C=C)O[Si](C)(C=C)O[Si](C)(C=C)O1 (stereo not given) [2,4,6,8-tetramethyl-2,4,6,8-tetravinylcycloterasiloxane] .
967.49

Specify measured mass density for C[Si]1(CCC(F)(F)F)O[Si](C)(CCC(F)(F)F)O[Si](C)(CCC(F)(F)F)O1 (stereo not given) .
1230.2

Specify measured mass density for C=C[Si](C)(C)O[Si](C)(C)C=C [1,3-diethenyl-1,1,3,3-tetramethyldisiloxane] .
793.04

Specify measured mass density for C[Si]1(C)O[Si](C)(C)O[Si](C)(C)O[Si](C)(C)O1 [octamethylcyclotetrasiloxane] .
933.06

* * *

testName: refractive index (Na D-line) (dimensionless)
testSettings: 323.15 K; 102.2 kPa; Liquid; Standard Abbe refractometry
Numbers after ± are expanded uncertainties.
Hi there, I'd appreciate the recorded refractive index for every entry that follows.

Specify measured refractive index for C=C[Si]1(C)O[Si](C)(C=C)O[Si](C)(C=C)O[Si](C)(C=C)O1 (stereo not given) .
1.4204 ± 0.0004

Specify measured refractive index for C=C[Si](C)(C)O[Si](C)(C)C=C .
1.39644 ± 0.00036

Specify measured refractive index for C[Si]1(C)O[Si](C)(C)O[Si](C)(C)O[Si](C)(C)O1 .
1.38168 ± 0.00036

Specify measured refractive index for C[Si](C)(O[Si](C)(C)c1ccccc1)c1ccccc1 .
1.50377 ± 0.00035 [middle of 4 runs]

Specify measured refractive index for C[Si]1(CCC(F)(F)F)O[Si](C)(CCC(F)(F)F)O[Si](C)(CCC(F)(F)F)O1 (stereo not given) .
1.35413 ± 0.00035
